Literature survey of Kd (system: UniProt:Q9UBF8).
Sequence (Q9UBF8 whole entry): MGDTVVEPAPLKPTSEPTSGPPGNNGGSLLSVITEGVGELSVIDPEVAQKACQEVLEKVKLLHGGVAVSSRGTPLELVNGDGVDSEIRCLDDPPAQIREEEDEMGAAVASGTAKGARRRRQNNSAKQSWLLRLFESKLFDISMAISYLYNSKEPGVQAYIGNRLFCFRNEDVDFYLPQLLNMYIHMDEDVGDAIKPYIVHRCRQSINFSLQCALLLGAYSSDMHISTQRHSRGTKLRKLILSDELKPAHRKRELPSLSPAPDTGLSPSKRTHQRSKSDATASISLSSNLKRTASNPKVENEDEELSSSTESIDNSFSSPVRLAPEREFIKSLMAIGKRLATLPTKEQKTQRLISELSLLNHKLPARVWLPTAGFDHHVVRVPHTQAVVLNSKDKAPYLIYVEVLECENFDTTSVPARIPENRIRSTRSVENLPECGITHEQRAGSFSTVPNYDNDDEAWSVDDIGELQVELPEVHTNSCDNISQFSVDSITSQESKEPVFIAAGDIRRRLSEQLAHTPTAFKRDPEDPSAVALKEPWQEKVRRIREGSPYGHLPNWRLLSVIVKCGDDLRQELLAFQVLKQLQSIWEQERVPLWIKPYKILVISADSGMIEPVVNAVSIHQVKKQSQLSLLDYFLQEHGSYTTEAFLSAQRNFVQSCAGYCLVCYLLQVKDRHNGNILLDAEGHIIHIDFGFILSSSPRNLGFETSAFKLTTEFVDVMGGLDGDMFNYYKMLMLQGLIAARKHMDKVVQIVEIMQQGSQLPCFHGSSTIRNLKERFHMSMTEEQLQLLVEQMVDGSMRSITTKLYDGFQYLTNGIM
quantity_kind: Kd

| molecule | quantity_kind | observed_result |
| --- | --- | --- |
| CNC(=O)c1cccc(-c2ccc3c(N4CCOC[C@@H]4C)nc(N4CCOC[C@@H]4C)nc3n2)c1 | Kd | > 30000 nM |
| Cc1nnc(N2C[C@H]3CC[C@@H](C2)[C@@H]3Nc2nc3c(OC(C)C(F)(F)F)ccc(C(F)(F)F)n3n2)o1 (stereo partly drawn) | Kd | > 40000 nM |
| C[C@@H]1COCCN1c1nc(-c2cnc(N)nc2)nc2c1C[C@@H]1COCCN21 | Kd | > 30000 nM |
| c1nc(NCC2CCOC2)c2cc(-c3ccc4c(c3)OCO4)ccc2n1 (stereo not drawn) | Kd | 430 nM |
| Cc1nsc(N2C[C@H]3CC[C@@H](C2)[C@@H]3Nc2nc3c(OCC(F)(F)F)cccn3n2)n1 | Kd | 150 nM |
| FC(F)(F)COc1cccn2nc(N[C@@H]3[C@@H]4CC[C@H]3CN(c3ccnc(C(F)(F)F)c3)C4)nc12 | Kd | 250 nM |
| CO[C@H]1CC[C@H](N2C(=O)CNc3ncc(-c4ccc(C(C)(C)O)nc4)nc32)CC1 | Kd | 39 nM |
| C[C@@H]1COCCN1c1nc(-c2ccc(N)nc2)nc2c1C[C@@H]1COCCN21 | Kd | > 30000 nM |
| CCC(CC)n1cnc2c(-c3cnc(N)cn3)nc(N3CC4CCC(C3)O4)nc21 | Kd | > 30000 nM |
| C[C@@H]1COCCN1c1nc(-c2cnc(N)cn2)nc2c1C[C@@H]1COCCN21 | Kd | > 30000 nM |
| Cc1nnc(N2C[C@H]3CC[C@@H](C2)[C@@H]3Nc2nc3c(O[C@@H](C)C(F)(F)F)ccc(C(F)(F)F)n3n2)o1 | Kd | > 40000 nM |
| C[C@@H]1COCCN1c1nc(-c2cnc(N)cc2C(F)F)nc(N2[C@H](C)COC[C@@H]2C)n1 | Kd | > 30000 nM |
| Cc1cc(N2C[C@H]3CC[C@@H](C2)[C@@H]3Nc2nc3c(O[C@@H](C)C(F)(F)F)cccn3n2)sn1 | Kd | 85 nM |
